- Tested on: S. aureus
- ASSAY_EXPLANATION: Checkerboard assay of interactions between LC-PUFAs and topical antimicrobial agents
- Assay type: cell-based
- EXPERIMENTAL_CONDITIONS: in combination with EPA, n = 2, mean ± one standard deviation
A collection of molecules and their measured ΣFIC
Give the value as a plain number.

Field: example entries. Status: answers known.
O=C(O)c1ccccc1O	0.88
NC[C@@H]1O[C@H](O[C@H]2[C@@H](O)[C@H](O[C@@H]3[C@@H](O)[C@H](N)C[C@H](N)[C@H]3O[C@H]3O[C@H](CN)[C@@H](O)[C@H](O)[C@H]3N)O[C@@H]2CO)[C@H](N)[C@@H](O)[C@@H]1O	0.38
CC(=O)O[C@H]1C[C@@]2(C)[C@@H](C[C@@H](O)[C@H]3[C@@]4(C)CC[C@@H](O)[C@@H](C)[C@@H]4CC[C@@]32C)/C1=C(\CCC=C(C)C)C(=O)O	1.13
C/C(=C\C(=O)OCCCCCCCCC(=O)O)C[C@@H]1OC[C@H](C[C@@H]2O[C@H]2[C@@H](C)[C@H](C)O)[C@@H](O)[C@H]1O	2.00

Query O=C(OOC(=O)c1ccccc1)c1ccccc1 [BPO, benzoyl peroxide] yields ΣFIC of 1.00
